target: Panicum queenslandicum (C4) PEPC; construct: gene ppc-1P3; full-length, 962 codons, N-terminal His6 tag kept, E. coli BL21(DE3), cloned from leaf cDNA; test: malate dehydrogenase-coupled NADH assay, […] nm; assay type: biochemical; conditions: pH 8.0, 25 °C, 10 mM MgCl2, 5 mM KHCO3, PEP varied; mixed inhibitor, competitive constant (limiting PEP); read-out: KicMalate
quantity: Ki (mM)
Your answer is read as mM, so omit the unit and give the number.

Problem: Returns the measured Ki for the input molecule. Input: O=C(O)C[C@H](O)C(=O)O [malate]
Solution: 7.51

----------
target: Flaveria trinervia (C4) PEPC (Flaveria trinervia, UniProt P30694); construct: gene PPCA; full-length, 967 codons, N-terminal His6 tag kept (pET-1B His6 TEV LIC), E. coli BL21(DE3); assay: malate dehydrogenase-coupled NADH assay, […] nm; format: biochemical; conditions: read-out: KicAspartate
Sequence (P30694 whole entry): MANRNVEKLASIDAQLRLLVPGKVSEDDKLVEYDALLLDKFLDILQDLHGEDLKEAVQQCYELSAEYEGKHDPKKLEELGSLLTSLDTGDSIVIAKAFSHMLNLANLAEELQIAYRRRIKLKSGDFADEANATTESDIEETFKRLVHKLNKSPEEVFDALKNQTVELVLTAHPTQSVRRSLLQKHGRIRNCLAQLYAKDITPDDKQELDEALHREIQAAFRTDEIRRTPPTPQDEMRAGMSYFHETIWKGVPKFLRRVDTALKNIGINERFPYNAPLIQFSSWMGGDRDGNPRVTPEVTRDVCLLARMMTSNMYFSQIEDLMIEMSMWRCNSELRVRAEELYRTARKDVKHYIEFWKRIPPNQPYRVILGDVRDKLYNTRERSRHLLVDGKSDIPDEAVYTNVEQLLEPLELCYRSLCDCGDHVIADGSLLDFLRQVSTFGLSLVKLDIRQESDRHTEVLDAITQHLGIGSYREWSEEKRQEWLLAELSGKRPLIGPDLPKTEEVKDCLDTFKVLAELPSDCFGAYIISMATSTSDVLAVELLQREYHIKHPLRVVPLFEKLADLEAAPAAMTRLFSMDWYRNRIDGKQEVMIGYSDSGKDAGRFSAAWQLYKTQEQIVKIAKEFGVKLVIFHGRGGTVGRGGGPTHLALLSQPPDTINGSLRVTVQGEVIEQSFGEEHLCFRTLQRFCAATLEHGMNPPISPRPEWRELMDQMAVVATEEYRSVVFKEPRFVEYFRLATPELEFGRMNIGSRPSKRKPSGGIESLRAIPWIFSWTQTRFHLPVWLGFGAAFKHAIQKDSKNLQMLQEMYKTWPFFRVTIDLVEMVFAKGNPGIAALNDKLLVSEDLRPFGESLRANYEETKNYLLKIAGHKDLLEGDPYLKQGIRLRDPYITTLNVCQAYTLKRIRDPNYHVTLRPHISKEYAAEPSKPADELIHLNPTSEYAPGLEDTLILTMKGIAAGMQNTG
quantity: pKi
Field pKi (float): negative decimal logarithm of the concentration in molar.

Problem: Returns the measured pKi for the input compound. Input: N[C@@H](CC(=O)O)C(=O)O [aspartate]
Solution: 1.40
